Target: SULT1A1 (Homo sapiens, UniProt P50225, V243G)
Sequence (P50225 whole entry V243G): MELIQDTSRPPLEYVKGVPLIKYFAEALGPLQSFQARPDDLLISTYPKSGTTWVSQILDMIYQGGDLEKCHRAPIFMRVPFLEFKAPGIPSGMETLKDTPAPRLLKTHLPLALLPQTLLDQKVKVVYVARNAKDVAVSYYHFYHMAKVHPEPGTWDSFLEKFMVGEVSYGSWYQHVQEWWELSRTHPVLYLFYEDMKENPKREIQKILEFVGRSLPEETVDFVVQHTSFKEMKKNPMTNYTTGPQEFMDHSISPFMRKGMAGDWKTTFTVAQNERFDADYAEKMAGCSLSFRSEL
Assay: intrinsic fluorescence titration
Type: binding
QUANTITY_KIND: Kd (µM)

{"COMPOUND": "C[C@]12CC[C@@H]3c4ccc(O)cc4CC[C@H]3[C@@H]1CC[C@@H]2O [E2]", "QUANTITY_KIND": "Kd", "VALUE_UNIT": "µM", "MEASURED": 0.9}
{"COMPOUND": "C[C@]12CC[C@@H]3c4ccc(O)cc4C[C@@H](CCCCCCCCC[S+]([O-])CCCC(F)(F)C(F)(F)F)[C@H]3[C@@H]1CC[C@@H]2O (stereo partly shown)", "QUANTITY_KIND": "Kd", "VALUE_UNIT": "µM", "MEASURED": 1.3}

A. Oc1ccc2ccccc2c1
B. Nc1ncnc2c1ncn2[C@@H]1O[C@H](COP(=O)(O)O)[C@@H](OP(=O)(O)O)[C@H]1O
Larger number for Kd: A , or B ? Which one? Tell me its label.
A
